- system name: μ opiate receptor (MOR) (Rattus norvegicus, UniProt P33535)
- Construct: from tissue; host or cells: striatal tissue (membrane preparation)
- Sequence (P33535 whole entry): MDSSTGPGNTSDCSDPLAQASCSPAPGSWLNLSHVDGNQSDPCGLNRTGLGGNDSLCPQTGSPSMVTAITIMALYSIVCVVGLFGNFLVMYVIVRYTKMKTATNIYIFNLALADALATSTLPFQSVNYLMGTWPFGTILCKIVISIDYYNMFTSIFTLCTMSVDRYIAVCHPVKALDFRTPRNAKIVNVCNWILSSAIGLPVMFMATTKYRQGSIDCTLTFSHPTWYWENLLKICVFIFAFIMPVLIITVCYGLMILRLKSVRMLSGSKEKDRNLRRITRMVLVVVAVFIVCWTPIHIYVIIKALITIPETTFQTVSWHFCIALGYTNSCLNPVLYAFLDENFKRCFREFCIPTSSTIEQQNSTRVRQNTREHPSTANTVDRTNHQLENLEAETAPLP
- assay notes: MOR agonist activity, [35S]GTPγS binding assay using striatal membranes
- Type: biochemical
- experimental conditions: 1 μM compound + 1 μM β-funaltrexamine
Field: [35S]GTPγS binding to Gαo, FLNA-binding compound as agonist 1 μM + BFNA. Provide a value for each of the compounds that follow.
State the answer as a number, implicitly in %.

Task item: If you can, please state the reported [35S]GTPγS binding to Gαo, FLNA-binding compound as agonist 1 μM + BFNA value of CC1CCC(C(C)C)C(OCC(O)CN2CCc3ccccc32)C1 (centres unmarked) .
Reply: 44.9

Task item: Continue with COc1ccc(OCC(O)CN2CCC(=O)CC2)cc1 (centres unmarked)
Reply: 239.4

Task item: Continue with CC1CCC(C(C)C)C(OCC(CN2CC(C)OC(C)C2)NCc2ccccc2)C1 (centres unmarked)
Reply: 118.2

Task item: Continue with CC1CCC(C(C)C)C(OCC(O)Cn2cccc2)C1 (centres unmarked)
Reply: 107.0

Task item: Continue with Cc1cccc(OCC(O)CN2CC(C)OC(C)C2)c1 (centres unmarked)
Reply: 165.2

----------
Field: % DAMGO (1 μM). Provide a value for each of the compounds that follow.
- system name: μ opiate receptor (MOR) (Rattus norvegicus)
- Construct: from tissue; host or cells: striatal tissue (membrane preparation)
- assay notes: MOR agonist activity, [35S]GTPγS binding assay using striatal membranes
- Format: biochemical
- experimental conditions: relative to DAMGO, 1 μM
State the answer as a number, implicitly in %.

Task item: Entry OC(COc1ccccc1Br)CN1CCN(CCN2CCOCC2)CC1 (centres unmarked) , system μ opiate receptor (MOR) (Rattus norvegicus): what % DAMGO (1 μM) was measured?
Reply: 119.7

Task item: Continue with CC1CCC(C(C)C)C(OCC(O)CN2CC(C)OC(C)C2)C1 (centres unmarked)
Reply: 117.6

Task item: Continue with OC(COc1ccc(Br)c(F)c1)CN1CCN(CCN2CCOCC2)CC1 (centres unmarked)
Reply: 106.6

Task item: Continue with COc1ccc(OCC(O)CN2CCc3cc4c(c(OC)c3C2)OCO4)cc1 (centres unmarked)
Reply: 88.9

Task item: Continue with CC1CCC(C(C)C)C(OCC(O)CN2CCN(Cc3ccccc3)CC2)C1 (centres unmarked)
Reply: 97.2

----------
- system name: μ opiate receptor (MOR) (Rattus norvegicus)
- Construct: from tissue; host or cells: striatal tissue (membrane preparation)
- assay notes: MOR agonist activity, [35S]GTPγS binding assay using striatal membranes
- Type: biochemical
- experimental conditions: 0.1 μM compound, striatal membranes
measurement label: [35S]GTPγS binding to Gαo, FLNA-binding compound as agonist 0.1 μM (%)
State the answer as a number, implicitly in %.

Task item: If you can, please state the reported [35S]GTPγS binding to Gαo, FLNA-binding compound as agonist 0.1 μM value of CC1CCC(C(C)C)C(OCC(CN2CC(C)OC(C)C2)NCc2ccccc2)C1 (stereo not drawn) [Compound A0033] .
Reply: 155.8

Task item: Continue with CC1CCC(C(C)C)C(OCC(O)CN2CCc3ccccc3C2)C1 (stereo not drawn) [Compound A0040]
Reply: 46.1

Task item: Continue with CC1CN(CC(O)COc2ccccc2C(C)C)CC(C)O1 (stereo not drawn) [Compound A0029]
Reply: 173.8

Task item: Continue with CC1CCC(C(C)C)C(OCC(O)CN2CCSC2)C1 (stereo not drawn) [Compound A0002]
Reply: 155.6

Task item: Continue with CC1CCC(C(C)C)C(OCC(O)CN2CCCCCCC2)C1 (stereo not drawn) [Compound A0014]
Reply: 147.0

Task item: Continue with CC1CCC(C(C)C)C(OCC(O)CN2CC(C)OC(C)C2)C1 (stereo not drawn) [Compound A0032-1]
Reply: 187.4

Task item: Continue with CC1CCC(C(C)C)C(OCC(O)CN2CCOc3ccccc32)C1 (stereo not drawn) [Compound A0066]
Reply: 151.9

Task item: Continue with CC1CCC(C(C)C)C(OCC(O)Cn2ccc3ccccc32)C1 (stereo not drawn) [Compound A0078]
Reply: 250.5

Task item: Continue with Cc1cccc(OCC(O)CN2CC(C)OC(C)C2)c1 (stereo not drawn) [Compound A0030]
Reply: 133.4

Task item: Continue with CC1CN(CC(O)COc2cccc(C(F)(F)F)c2)CC(C)O1 (stereo not drawn) [Compound A0051]
Reply: 290.4

Task item: Continue with CC1CN(CC(O)COc2cccc(F)c2)CC(C)O1 (stereo not drawn) [Compound A0049]
Reply: 232.3

Task item: Continue with CC1CCC(C)C(OCC(O)CN2CC(C)OC(C)C2)C1 (stereo not drawn) [Compound A0022]
Reply: 154.1

Task item: Continue with COc1ccc(OCC(O)CN2CCOc3ccccc32)cc1 (stereo not drawn) [Compound A0076]
Reply: 79.8

Task item: Continue with OC(COc1cccc(C(F)(F)F)c1)CN1CCc2ccccc2C1 (stereo not drawn) [Compound A0054]
Reply: 74.9

Task item: Continue with CC1CCC(C(C)C)C(OCC(O)CN2CCC(=O)C(C)C2)C1 (stereo not drawn) [Compound A0056]
Reply: 115.6
